pIC50 reference
target: α4β7 integrin (Homo sapiens (Human), UniProt P13612+P26010); test: Integrin Adhesion Assay: Protocol 4 (MAdCAM-coated plate, RPMI-8866 cells with stable LOF mutation of the ITGB1 gene); assay type: cell-based; conditions: Protocol 4; RPMI-8866 cells with LOF mutation of ITGB1, MAdCAM; read-out: Mean IC50 α4β7 KO
Sequence (P13612 34-1032): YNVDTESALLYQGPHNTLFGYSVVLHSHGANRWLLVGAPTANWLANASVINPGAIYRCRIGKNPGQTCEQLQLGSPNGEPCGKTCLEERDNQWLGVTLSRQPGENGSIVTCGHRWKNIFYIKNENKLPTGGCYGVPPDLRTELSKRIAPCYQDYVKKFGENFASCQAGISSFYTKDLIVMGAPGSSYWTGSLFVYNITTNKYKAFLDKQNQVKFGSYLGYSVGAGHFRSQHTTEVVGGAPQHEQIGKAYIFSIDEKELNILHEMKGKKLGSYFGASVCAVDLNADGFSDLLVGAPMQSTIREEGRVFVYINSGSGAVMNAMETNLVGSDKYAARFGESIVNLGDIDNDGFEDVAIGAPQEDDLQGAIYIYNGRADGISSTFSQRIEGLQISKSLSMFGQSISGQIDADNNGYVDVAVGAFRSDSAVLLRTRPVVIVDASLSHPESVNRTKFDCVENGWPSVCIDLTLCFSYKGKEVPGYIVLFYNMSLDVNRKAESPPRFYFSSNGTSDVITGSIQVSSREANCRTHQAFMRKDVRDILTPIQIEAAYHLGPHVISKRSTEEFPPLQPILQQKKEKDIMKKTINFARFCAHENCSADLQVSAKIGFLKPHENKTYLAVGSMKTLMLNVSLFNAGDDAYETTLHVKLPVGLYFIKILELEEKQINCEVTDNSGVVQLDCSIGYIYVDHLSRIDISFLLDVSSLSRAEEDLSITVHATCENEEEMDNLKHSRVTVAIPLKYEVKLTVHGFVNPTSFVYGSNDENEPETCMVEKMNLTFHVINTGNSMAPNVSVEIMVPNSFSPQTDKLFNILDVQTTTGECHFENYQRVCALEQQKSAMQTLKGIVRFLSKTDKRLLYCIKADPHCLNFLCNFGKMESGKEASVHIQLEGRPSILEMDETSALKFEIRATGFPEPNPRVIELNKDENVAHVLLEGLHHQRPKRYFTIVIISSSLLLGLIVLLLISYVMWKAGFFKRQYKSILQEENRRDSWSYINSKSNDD
Sequence (P26010 20-798): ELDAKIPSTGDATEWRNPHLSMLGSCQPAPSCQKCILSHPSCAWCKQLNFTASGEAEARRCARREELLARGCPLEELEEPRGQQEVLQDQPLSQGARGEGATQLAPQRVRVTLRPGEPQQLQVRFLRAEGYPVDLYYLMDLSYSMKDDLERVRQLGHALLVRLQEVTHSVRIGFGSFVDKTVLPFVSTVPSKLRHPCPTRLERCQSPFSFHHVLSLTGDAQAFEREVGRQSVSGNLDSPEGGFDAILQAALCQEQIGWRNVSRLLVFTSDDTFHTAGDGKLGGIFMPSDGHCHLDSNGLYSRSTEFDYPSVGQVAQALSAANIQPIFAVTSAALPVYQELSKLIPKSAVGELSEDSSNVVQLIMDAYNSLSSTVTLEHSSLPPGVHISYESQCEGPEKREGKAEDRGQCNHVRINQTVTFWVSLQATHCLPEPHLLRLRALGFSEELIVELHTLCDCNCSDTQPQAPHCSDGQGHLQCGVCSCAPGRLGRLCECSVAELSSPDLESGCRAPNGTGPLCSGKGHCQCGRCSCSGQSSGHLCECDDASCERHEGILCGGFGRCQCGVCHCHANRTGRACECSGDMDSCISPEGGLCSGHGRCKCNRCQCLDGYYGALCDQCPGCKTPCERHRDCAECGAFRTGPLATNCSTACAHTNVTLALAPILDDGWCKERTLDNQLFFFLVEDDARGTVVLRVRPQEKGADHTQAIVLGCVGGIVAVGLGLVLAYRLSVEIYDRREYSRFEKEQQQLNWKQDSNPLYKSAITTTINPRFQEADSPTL
pIC50: −log10 of the molar value.

// worked examples, pIC50 included
compound: COc1cc(CCN2CCCCC2)cnc1-c1cccc2c(C[C@H](NC(=O)C3(C(F)(F)F)CCN(CC(F)(F)F)CC3)C(=O)O)cccc12
pIC50: > 8.00
--
compound: CN(C)CCc1ccc2c(c1)c(C(F)(F)F)c(-c1cccc3c(C[C@H](NC(=O)C4(C(F)(F)F)CCN(CC(F)(F)F)CC4)C(=O)O)cccc13)c(=O)n2C
pIC50: > 8.00
--
compound: COc1ccc2ccccc2c1-c1cccc2c(C[C@H](NC(=O)C3(C(F)(F)F)CCN(CC(F)(F)F)CC3)C(=O)O)cccc12
pIC50: 7.00 to 8.00
--
compound: O=C(O)[C@H](Cc1cccc2c(-c3ncc(CN4CC5CC(C4)O5)c4ccccc34)cccc12)NC(=O)C1(C(F)(F)F)CCN(CC(F)(F)F)CC1
pIC50: > 8.00
--
compound: COc1cc(CN2CCCCC2)cc(OC)c1-c1cccc2c(C[C@H](NC(=O)C3(C(F)(F)F)CCN(CC(F)(F)F)CC3)C(=O)O)cccc12
pIC50: > 8.00

Alright, here's another compound for you.
For record `CC1(C(=O)N[C@@H](Cc2cccc3c(-c4ncc(CN5CCCCC5)c5ccccc45)cccc23)C(=O)O)CCN(CC(F)F)CC1` the listed pIC50 is > 8.00

###

pIC50 reference
target: α4β7 integrin (Homo sapiens (Human), UniProt P13612+P26010); experiment: Integrin Adhesion Assay: Protocol 1 (MAdCAM-coated plate, RPMI-8866 cells, CellTiter GLO readout); assay type: cell-based; settings: integrin adhesion assay; determined by at least one of the assays described (protocol not specified)
pIC50: −log10 of the molar value.

input.smiles: Cc1nn(C2CCOCC2)c(C)c1C(=O)N[C@@H](Cc1cccc2c(-n3c(=O)ccn(C)c3=O)cccc12)C(=O)O
pIC50: 7.00 to 8.00
//
input.smiles: Cn1ccc(=O)n(-c2cccc3c(C[C@H](NC(=O)c4c(F)cc(N5CCOC[C@H]5C(F)(F)F)cc4F)C(=O)O)cccc23)c1=O
pIC50: 7.00 to 8.00

For record `Cn1ccc(=O)n(-c2cccc3c(C[C@H](NC(=O)c4c(F)cc(N5CCOC[C@@H]5C(F)(F)F)cc4CN4CCCC4)C(=O)O)cccc23)c1=O` the listed pIC50 is > 8.00

For record `CCCS(=O)(=O)Nc1ccc(F)c(C(=O)N[C@@H](Cc2cccc3c(-n4c(=O)ccn(C)c4=O)cccc23)C(=O)O)c1F` the listed pIC50 is > 8.00

For record `Cn1ccc(=O)n(-c2cccc3c(C[C@H](NC(=O)C4CCN(CC(F)(F)F)CC4)C(=O)O)cccc23)c1=O` the listed pIC50 is < 6.00

For record `Cn1ccc(=O)n(-c2cccc3c(C[C@H](NC(=O)c4c(F)cc(C(F)(F)F)cc4F)C(=O)O)cccc23)c1=O` the listed pIC50 is 7.00 to 8.00

###

pIC50 reference
target: α4β7 integrin (Homo sapiens (Human), UniProt P13612+P26010); experiment: Integrin Adhesion Assay: Protocol 1 (MAdCAM-coated plate, RPMI-8866 cells, CellTiter GLO readout); assay type: cell-based; conditions: integrin adhesion assay; determined by at least one of the assays described (protocol not specified)
pIC50: −log10 of the molar value.

// worked examples, pIC50 included
input.smiles: Cn1ccc(=O)n(-c2cccc3c(C[C@H](NC(=O)c4c(F)cncc4Cl)C(=O)O)cccc23)c1=O
pIC50: 7.00 to 8.00

input.smiles: Cn1ccc(=O)n(-c2cccc3c(C[C@H](NC(=O)c4c(F)cccc4F)C(=O)O)cccc23)c1=O
pIC50: 7.00 to 8.00

input.smiles: CCOCc1cc(OC)c(-c2nccc3c(C[C@H](NC(=O)c4c(F)cccc4F)C(=O)O)cccc23)c(OC)c1
pIC50: 7.00 to 8.00

input.smiles: Cn1ccc(=O)n(-c2cccc3c(C[C@H](NC(=O)c4c(F)cccc4CN4CCC4)C(=O)O)cccc23)c1=O
pIC50: 7.00 to 8.00

input.smiles: Cn1cc(CCN2CC(F)C2)c(=O)n(-c2cccc3c(C[C@H](NC(=O)c4c(F)cccc4F)C(=O)O)cccc23)c1=O
pIC50: 7.00 to 8.00

For record `Cc1nccc(F)c1C(=O)N[C@@H](Cc1cccc2c(-n3c(=O)ccn(C)c3=O)cccc12)C(=O)O` the listed pIC50 is 7.00 to 8.00

For record `C/C=C/c1cn(C)c(=O)n(-c2cccc3c(C[C@H](NC(=O)c4c(F)cccc4F)C(=O)O)cccc23)c1=O` the listed pIC50 is 7.00 to 8.00

For record `O=C(N[C@@H](Cc1cccc2c(-c3cccc4ccncc34)nccc12)C(=O)O)c1c(F)cc(CN2CCOCC2)cc1F` the listed pIC50 is < 6.00

For record `Cc1ccccc1-c1cccc(C(F)(F)C(=O)N[C@@H](Cc2cccc3c(-n4c(=O)ccn(C)c4=O)cccc23)C(=O)O)c1` the listed pIC50 is < 6.00

For record `O=C(N[C@@H](Cc1cccc2c(-c3nccc4ccncc34)cccc12)C(=O)O)c1c(F)cc(N2CCOC[C@@H]2CC(F)F)cc1CN1CCOCC1` the listed pIC50 is > 8.00

###

molecular target: α4β7 integrin (Homo sapiens (Human), UniProt P13612+P26010); experiment: Integrin Adhesion Assay: Protocol 4 (MAdCAM-coated plate, RPMI-8866 cells with stable LOF mutation of the ITGB1 gene); assay type: cell-based; conditions: Protocol 4; RPMI-8866 cells with LOF mutation of ITGB1, MAdCAM; read-out: Mean IC50 α4β7 KO
reported.metric: IC50

// worked examples, IC50 included
compound: COc1ccc(CN2CCC[C@@H](F)C2)c(OC)c1-c1cccc2c(C[C@H](NC(=O)C3(C(F)(F)F)CCN(CC(F)(F)F)CC3)C(=O)O)cccc12
IC50: < 10 nM

compound: O=C(O)[C@H](Cc1cccc2c(-c3nccc4ccccc34)cccc12)NC(=O)C1(C(F)(F)F)CCN(CC(F)(F)F)CC1
IC50: 10 to 100 nM

compound: O=C(O)[C@H](Cc1cccc2c(-c3nccc4ccc(CCCN5CC6(CCC6)C5)cc34)cccc12)NC(=O)C1(C(F)(F)F)CCN(CC(F)(F)F)CC1
IC50: < 10 nM

compound: O=C(O)[C@H](Cc1cccc2c(-c3ccc(CN4CCCC(F)C4)c4ccncc34)cccc12)NC(=O)C1(C(F)(F)F)CCN(CC(F)(F)F)CC1 (stereo partly drawn)
IC50: 10 to 100 nM

compound: Cc1cccc(F)c1C(=O)N[C@@H](Cc1cccc2c(-c3cccc4c3OCC4)cccc12)C(=O)O
IC50: 100 to 1000 nM

For record `O=C(O)[C@H](Cc1cccc2c(-c3ncc(CN4CCC(F)(F)CC4)cc3C3CC3)cccc12)NC(=O)C1(C(F)(F)F)CCN(CC(F)(F)F)CC1` the listed IC50 is < 10 nM

For record `C[C@@H]1CN(CCc2cnc(-c3cccc4c(C[C@H](NC(=O)C5(C(F)(F)F)CCN(CC(F)(F)F)CC5)C(=O)O)cccc34)c3ccccc23)C[C@H](C)O1` the listed IC50 is < 10 nM

For record `O=C(O)[C@H](Cc1cccc2c(-c3ncc(CN4CCCC5(CC5)C4)c4ccccc34)cccc12)NC(=O)C1(C(F)(F)F)CCN(CC(F)(F)F)CC1` the listed IC50 is < 10 nM

For record `COc1c(CN2CCCCC2)cc2cccnc2c1-c1cccc2c(C[C@H](NC(=O)C3(C(F)(F)F)CCN(CC(F)(F)F)CC3)C(=O)O)cccc12` the listed IC50 is 10 to 100 nM

For record `CN(C)Cc1ccc2c(c1)c(C(F)(F)F)c(-c1cccc3c(C[C@H](NC(=O)C4(C(F)(F)F)CCN(CC(F)(F)F)CC4)C(=O)O)cccc13)c(=O)n2C` the listed IC50 is < 10 nM

For record `Cc1cccc(F)c1C(=O)N[C@@H](Cc1cccc2c(-c3c(C(F)(F)F)c4cc(CCN5CCC(F)(F)C5)ccc4n(C)c3=O)cccc12)C(=O)O` the listed IC50 is 10 to 100 nM

For record `Cc1cc(CN2CCCCC2)cnc1-c1cccc2c(C[C@H](NC(=O)C3(C(F)(F)F)CCN(CC(F)(F)F)CC3)C(=O)O)cccc12` the listed IC50 is < 10 nM

###

pIC50 reference
molecular target: α4β1 integrin (Homo sapiens (Human), UniProt P05556+P13612); assay: Integrin Adhesion Assay: Protocol 5 (VCAM-coated plate, RPMI-8866 cells with stable LOF mutation of the ITGB7 gene); type: cell-based; conditions: RPMI-8866 cells with stable LOF mutation of the ITGB7 gene; read-out: Mean IC50 α4β1 KO^b
Sequence (P13612 34-1032): as the sequence (P13612 34-1032) above
Sequence (P05556 21-798): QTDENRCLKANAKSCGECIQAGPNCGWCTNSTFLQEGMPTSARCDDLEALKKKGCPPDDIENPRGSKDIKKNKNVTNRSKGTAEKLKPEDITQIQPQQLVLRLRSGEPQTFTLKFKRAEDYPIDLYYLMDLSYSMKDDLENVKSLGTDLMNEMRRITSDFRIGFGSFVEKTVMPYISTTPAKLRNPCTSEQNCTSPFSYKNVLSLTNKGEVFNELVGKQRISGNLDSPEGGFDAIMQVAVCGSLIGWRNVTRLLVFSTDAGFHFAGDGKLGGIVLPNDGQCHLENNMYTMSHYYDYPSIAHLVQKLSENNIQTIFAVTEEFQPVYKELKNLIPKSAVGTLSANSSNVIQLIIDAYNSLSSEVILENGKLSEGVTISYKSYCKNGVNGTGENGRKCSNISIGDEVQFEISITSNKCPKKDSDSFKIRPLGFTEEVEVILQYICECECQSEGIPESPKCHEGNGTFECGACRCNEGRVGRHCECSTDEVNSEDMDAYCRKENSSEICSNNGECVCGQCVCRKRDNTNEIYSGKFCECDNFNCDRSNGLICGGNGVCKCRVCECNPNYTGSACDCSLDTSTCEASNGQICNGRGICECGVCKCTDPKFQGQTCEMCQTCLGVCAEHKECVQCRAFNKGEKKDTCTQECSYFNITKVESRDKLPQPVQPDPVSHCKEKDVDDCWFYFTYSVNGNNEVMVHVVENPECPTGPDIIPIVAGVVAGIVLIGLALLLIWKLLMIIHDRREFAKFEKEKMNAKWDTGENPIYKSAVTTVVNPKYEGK
pIC50: −log10 of the molar value.

compound: COc1cccc(CN2CCCCC2)c1-c1cccc2c(C[C@H](NC(=O)c3c(F)ccc(F)c3C)C(=O)O)cccc12 [Compound 543]
pIC50: < 6.00
--
compound: O=C(O)[C@H](Cc1cccc2c(-c3ncc(CN4CCCCC4)c4ccccc34)cccc12)NC(=O)C1(C(F)(F)F)CCN([C@@H]2COCC2(F)F)CC1 [Compound 578]
pIC50: < 6.00
--
compound: CN(C)Cc1cc(-c2cccc3c(C[C@H](NC(=O)c4c(F)cc(N5CCOC[C@@H]5C(F)(F)F)cc4CN4CCCC4)C(=O)O)cccc23)c2cnccc2c1 [Compound 587]
pIC50: < 6.00
--
compound: CN1CCCC1c1cc(-c2cccc3c(C[C@H](NC(=O)C4(C(F)(F)F)CCN(CC(F)(F)F)CC4)C(=O)O)cccc23)c2cnccc2c1 (stereo partly drawn) [Compound 532]
pIC50: < 6.00
--
compound: O=C(O)[C@H](Cc1cccc2c(-c3nccc4ccc(CCCN5CCC(F)(F)CC5)cc34)cccc12)NC(=O)C1(C(F)(F)F)CCN(CC(F)(F)F)CC1 [Compound 539]
pIC50: < 6.00

Alright, here's another compound for you.
For record CN(C)Cc1cccc2c(-c3cccc4c(C[C@H](NC(=O)c5c(F)cc(N6CCOC[C@@H]6C(F)(F)F)cc5CN5CCCC5)C(=O)O)cccc34)nccc12 [Compound 433] the listed pIC50 is < 6.00
